Reported values of pIC50 for individual entries
# Tested on: neutrophils
# Protocol: Neutrophil calcium flux assay (5-OXO-ETE-stimulated, Indo-1 fluorescence)
# Format: cell-based
# Condition Label: Neutrophil, 5-OXO-ETE-stimulated calcium flux
pIC50: −log10 of the molar value.
Readout: pIC50

> print(dat)
                                   compound  recorded.measurement
1  CC(CC(=O)O)CC(=O)c1c(CCCCC#Cc2ccc(F)nc2)n(C)c2ncc(Cl)cc12 (stereo not shown)                < 6.52
2  C[C@@H](CC(=O)NS(C)(=O)=O)CC(=O)c1c(CCCCCCc2cccc(Cl)c2)n(C)c2ccc(Cl)cc12                < 6.52
3  CCC#CCCCCCCc1c(C(=O)C[C@H](C)CC(=O)O)c2cc(Cl)ccc2n1C                > 7.00
4  Cn1c(CCCCCCCC#CC2CC(F)(F)C2)c(C(=O)N2CC[C@H](C(=O)O)C2)c2cc(C#N)cnc21                < 6.52
5  C[C@H](CC(=O)NCC(=O)O)CC(=O)c1c(CCCCOCc2ccccc2)n(C)c2ncc(C#N)cc12                < 6.52
6  CC(C)CCOCc1c(C(=O)C[C@H](C)CC(=O)O)c2cc(Cl)ccc2n1C                < 6.52
7  C[C@H](CC(=O)O)CC(=O)c1c(CCCCOCc2cccc(C#N)c2)n(C)c2nc(F)c(Cl)cc12                > 7.00

---

# Tested on: neutrophils
# Protocol: Neutrophil calcium flux assay (5-OXO-ETE-stimulated, Indo-1 fluorescence)
# Type: cell-based
# Condition Label: Neutrophil, 5-OXO-ETE-stimulated calcium flux
# Method: After isolation, neutrophils were resuspended in PBS without calcium and Magnesium (PBS −/−) at a concentration of 5×10^6 cells/ml. 2ul of Indo-1 (1 mM) were added per ml of cells. […] After incubation at 37° C. for 5 minutes, 50 μL of assay buffer or 3× antagonist were added and incubated for 5 min in a Tecan Spark plate reader (Tecan, Morrisville, NC). Baseline was measured for 30 sec (wavelength setup: excitation: 331 nm and emission:410 nm). […] Fluorescence was measured every 5 seconds for 30 cycles. […]
pIC50: −log10 of the molar value.
Reported values of pIC50 for individual entries
Readout: pIC50

> print(dat)
                                    molecule  recorded.measurement
 1  C[C@@H](CC(=O)O)CC(=O)c1c(CCCCCCc2cncs2)n(C)c2ncc(C#N)cc12 [Compound I-372]                < 6.52
 2  CC(CC(=O)O)CC(=O)c1c(CCCCCCc2cccc(Cl)c2)n(C[C@@H](O)CO)c2ncc(C#N)cc12 (stereo partly drawn) [Compound I-284]                > 7.00
 3  Cn1c(CCCCCCCC#CC2CC(F)(F)C2)c(C(=O)N2CC[C@H](C(=O)O)C2)c2cc(Br)cnc21 [Compound I-350]                < 6.52
 4  Cn1cc(-c2cccc(Cl)c2)c(C(=O)N2CC[C@H](C(=O)O)C2)c1CCCCOCc1cccc(Cl)c1 [Compound I-167]                < 6.52
 5  C[C@H](OCCCCc1c(C(=O)N2CC[C@H](C(=O)O)C2)c2cc(C#N)cnc2n1C)c1ccccc1 [Compound I-453]                < 6.52
 6  COC(=O)C[C@@H](C)CC(=O)c1c(CCCCOCc2ccccc2)n(C)c2ncc(C#N)cc12 [Compound I-449]                < 6.52
 7  C[C@H](CC(=O)O)CC(=O)c1c(CCCCCC#CC2CC(F)(F)C2)n(C)c2ccc(Cl)cc12 [Compound I-330]                < 6.52
 8  C[C@H](CC(=O)O)CC(=O)c1c(CCCCCCc2cccc(Cl)c2)[nH]c2ccc(Cl)cc12 [Compound I-144]                > 7.00
 9  COc1ccc2c(c1)c(C(=O)C[C@H](C)CC(=O)O)c(CCCCCCc1cccc(Cl)c1)n2C [Compound I-96]                > 7.00
10  Cn1c(CCCCCCC#CC2CC(F)(F)C2)c(C(=O)N2CC[C@H](C(=O)O)C2)c2cc(Cl)ccc21 [Compound I-339]                > 7.00
11  CC(CC(=O)O)CC(=O)c1c(CCCCOCc2cncnc2)n(C)c2ncc(C#N)cc12 (stereo not drawn) [Compound I-388]                < 6.52
12  C[C@H](CC(=O)O)CC(=O)c1c(CCCCCCC#CC2COC2)n(C)c2ccc(Cl)cc12 [Compound I-332]                > 7.00
13  Cn1nc(CCCCOCc2cccc(Cl)c2)c(C(=O)N2CC[C@H](C(=O)O)C2)c1-c1cccc(Cl)c1 [Compound I-192]                < 6.52
14  CC(CC(=O)O)CC(=O)c1c(CCCCCOCc2cccc(Cl)c2)[nH]c2ccc(C#N)cc12 (stereo not drawn) [Compound I-443]          6.52 to 7.00
15  CC(CC(=O)O)CC(=O)c1c(CCCOCC(F)(F)c2cccc(Cl)c2)n(C)c2ccc(Cl)cc12 (stereo not drawn) [Compound I-430]                > 7.00

---

Reported values of pIC50 for individual entries
# Test system: neutrophils
# Protocol: Neutrophil calcium flux assay (5-OXO-ETE-stimulated, Indo-1 fluorescence)
# Format: cell-based
# Condition Label: Neutrophil, 5-OXO-ETE-stimulated calcium flux
pIC50: −log10 of the molar value.
Readout: pIC50

> print(dat)
                                   compound  readout  recorded.measurement
1  C[C@@H](CC(=O)O)CC(=O)c1c(CCCCO[C@@H](C)c2ccccc2)n(C)c2ncc(C#N)cc12    pIC50                < 6.52
2  C[C@H](CC(=O)O)CC(=O)c1c([C@@H](O)CCCCCc2cccc(Cl)c2)n(C)c2ccc(Cl)cc12    pIC50                < 6.52
3  Cn1c(CCCCOCc2cccc(Cl)c2)c(C(=O)N2CC[C@H](C(=O)O)C2)c2cc(C#N)cnc21    pIC50                < 6.52
4  C[C@H](CC(=O)O)CC(=O)c1c(CCCCCNc2ncccn2)n(C)c2ccc(Cl)cc12    pIC50          6.52 to 7.00
5  C[C@H](CC(=O)O)CC(=O)c1c(CCCCCCc2cncs2)n(C)c2ncc(C#N)cc12    pIC50                > 7.00
6  Cn1c(CCCCOCc2ccccc2)c(C(=O)CC(CC(=O)O)C(F)(F)F)c2cc(C#N)cnc21 (stereo not shown)    pIC50                < 6.52
7  CC(CC(=O)O)CC(=O)c1c(CCCCOCc2cccc(C#N)c2)n(C)c2c(F)cc(C#N)cc12 (stereo not shown)    pIC50                < 6.52

---

Reported values of pIC50 for individual entries
# System: neutrophils
# Protocol: Neutrophil calcium flux assay (5-OXO-ETE-stimulated, Indo-1 fluorescence)
# Type: cell-based
# Condition Label: Neutrophil, 5-OXO-ETE-stimulated calcium flux
# Method: After isolation, neutrophils were resuspended in PBS without calcium and Magnesium (PBS −/−) at a concentration of 5×10^6 cells/ml. 2ul of Indo-1 (1 mM) were added per ml of cells. […] After incubation at 37° C. for 5 minutes, 50 μL of assay buffer or 3× antagonist were added and incubated for 5 min in a Tecan Spark plate reader (Tecan, Morrisville, NC). Baseline was measured for 30 sec (wavelength setup: excitation: 331 nm and emission:410 nm). […] Fluorescence was measured every 5 seconds for 30 cycles. […]
pIC50: −log10 of the molar value.
Readout: pIC50

> print(dat)
                                    molecule  recorded.measurement
 1  C[C@H](CC(=O)O)CC(=O)c1c(CCCCCCc2cccc(Cl)c2)n(C)c2ccc(C#N)cc12                > 7.00
 2  C[C@H](CC(=O)O)CC(=O)c1c(CCCCCCc2cccc(Cl)c2)sc2ccc(Cl)cc12          6.52 to 7.00
 3  COC(=O)[C@H]1CCN(C(=O)c2c(CCCCCCC#CC3CC(F)(F)C3)n(C)c3ncc(C#N)cc23)[C@@H]1C                < 6.52
 4  C[C@H](CC(=O)O)CC(=O)c1c(CCOCC#Cc2cccnc2)n(C)c2ncc(Cl)cc12                < 6.52
 5  Cn1c(CCCCCC(O)c2cccc(Cl)c2)c(C(=O)N2CC[C@H](c3nnn[nH]3)C2)c2cc(C#N)cnc21 (some centres unmarked)          6.52 to 7.00
 6  C[C@H](CC(=O)O)CC(=O)c1c(CCCCCCc2cccc(Cl)c2)oc2ccc(Cl)cc12                < 6.52
 7  C[C@H](CC(=O)O)CC(=O)c1c(CCCCCCC#CC2CC(F)(F)C2)n(C)c2ccc(Cl)cc12                > 7.00
 8  Cn1c(CCCCCCC#CC2CC(F)(F)C2)c(C(=O)N2CC[C@H](C(=O)NS(C)(=O)=O)C2)c2cc(C#N)cnc21                < 6.52
 9  COc1cc(COCCCCc2c(C(=O)CC(C)CC(=O)O)c3cc(Cl)cnc3n2C)ccn1 (centres unmarked)                < 6.52
10  C[C@H](CC(=O)O)CC(=O)c1c(COCCCCC#CC2CC(F)(F)C2)n(C)c2ccc(Cl)cc12                > 7.00
11  CC(CC(=O)O)CC(=O)c1c(CCCCOCc2cccc(Cl)c2)n(C)c2nccc(Cl)c12 (centres unmarked)                < 6.52
12  CC(CNC(=O)c1c(CCCCCCc2cccc(Cl)c2)n(C)c2ccc(Cl)cc12)C(=O)O (centres unmarked)                < 6.52
13  CC(CC(=O)O)CC(=O)c1c(CCCCS(=O)(=O)Cc2ccccc2)n(C)c2ncc(C#N)cc12 (centres unmarked)                < 6.52
14  C[C@H](CC(=O)O)CC(=O)c1c(CCCCCNc2cnccn2)n(C)c2ccc(Cl)cc12                < 6.52
15  Cn1ccc(C(=O)N2CC[C@H](C(=O)O)C2)c1CCCCOCc1cccc(Cl)c1                < 6.52
16  C[C@@H](CC(=O)O)CC(=O)c1c(CCCCOCc2ccc(F)cc2)n(C)c2ncc(Cl)cc12                < 6.52
17  CC(C)[C@H](NC(=O)C[C@@H](C)CC(=O)c1c(CCCCOCc2ccccc2)n(C)c2ncc(C#N)cc12)C(=O)O                < 6.52
18  C[C@H](CC(=O)O)CC(=O)c1c(CCCCCCc2ccncc2)n(C)c2ccc(Cl)cc12                > 7.00
19  CC(=O)Nc1cccc(COCCCCc2c(C(=O)CC(C)CC(=O)O)c3cc(C#N)cnc3n2C)c1 (centres unmarked)          6.52 to 7.00
20  C[C@@H](CC(=O)O)CC(=O)c1c(CCCCCOCc2ccccc2)n(C)c2ncc(C#N)cc12                < 6.52
21  [2H]C([2H])([2H])n1c(CCCCOCc2ccccc2)c(C(=O)CC(C)CC(=O)O)c2cc(C#N)cnc21 (centres unmarked)                > 7.00
22  C[C@H](CC(=O)O)CC(=O)c1c(CCCCC(=O)Nc2cc(Cl)ccc2O)n(C)c2ccc(Cl)cc12          6.52 to 7.00
23  Cn1c(CCCCCCc2cccc(Cl)c2)c(C(=O)N2CC(CC(=O)O)C2)c2cc(Cl)ccc21                < 6.52
24  C[C@H](CC(=O)O)CC(=O)c1c(COCCCCc2cccc(Cl)c2)n(C)c2ccc(Cl)cc12                > 7.00
25  Cn1c(CCCCOCc2cccc(Cl)c2)c(C(=O)N2CCC[C@H](C(=O)O)C2)c2cc(C#N)cnc21                < 6.52
26  C[C@H](CC(=O)O)CC(=O)c1c(CCCCOCc2ccccc2)n(C)c2ncc(C#N)cc12                > 7.00
27  Cn1c(CCCCCCc2cccc(Cl)c2)c(CN2CC[C@H](C(=O)O)C2)c2cc(Cl)ccc21                < 6.52
28  CC(CC(=O)O)CC(=O)c1c(CCCCCC(O)c2ccc(Cl)cc2)n(C)c2ncc(C#N)cc12 (centres unmarked)          6.52 to 7.00
29  CC(C)[C@@H](CC(=O)O)CC(=O)c1c(CCCCOCc2ccccc2)n(C)c2ncc(C#N)cc12                < 6.52
